target.under.test: β-secretase(BACE) (Homo sapiens)
Construct: purchased Panvera
protocol.summary: BACE Assay-2 (FS1 substrate, IC50 and Ki)
Type: biochemical
protocol.conditions: procedure of Example 159, FS1 substrate; read-out: Ki μM (159)
Description: The FS1-substrate stock solution was prepared in DMSO as a 10 mg/mL solution. The FS1-substrate working solution was prepared by diluting the 10 mg/mL stock solution with substrate assay buffer to a final concentration of 300 μg/mL. […] For test compounds, measured at multiple concentrations, the measured T0 and T60 values were used to calculate an IC50 value using Graphpad Software (or PIR). […]
quantity.name: Ki (µM)

Before answering, review these 2 worked examples.
CN(C(=O)CC[C@@H](C(=O)N(C)C1CCCCC1)N1Cc2cc(Oc3ccccc3)ccc2N=C1N)C1CCCCC1 [Compound 634] = 0.054
NC1=Nc2ccc(Oc3ccccc3)cc2CN1CCNC(=O)c1ccccc1 [Compound 154] = 0.61

A: NC1=Nc2ccc(-c3ccccc3F)cc2CN1CCNC(=O)C1CCCCC1 [Compound 535]
B: CCCN1Cc2cc(Oc3cccc(NCc4ccc(C)cc4)c3)ccc2N=C1N [Compound 729]
From the recorded data, which exceeds the other in Ki: A or B ? Response format: the label of the selected entry. B

---

target.under.test: β-secretase(BACE) (Homo sapiens)
Construct: purchased Panvera
protocol.summary: BACE FS1% Inhibition Assay
Format: biochemical
protocol.conditions: 1 μM test compound; FS1 substrate
quantity.name: % Inhibition (FS) 1 μM

COc1cccc(C)c1Oc1ccc2c(c1)CN(Cc1cccc(C(=O)N(C)C3CCCCC3)c1)C(N)=N2 [Compound 468] = <30%
COc1ccccc1-c1ccc2c(c1)CN(CCNC(=O)CCCN)C(N)=N2 [Compound 494] = <30%
CN(C(=O)c1cccc(CN2Cc3cc(Oc4ccccc4-c4nc5ccccc5s4)ccc3N=C2N)c1)C1CCCCC1 [Compound 470] = <30%
C[C@@H](CNC(=O)C1CCCCC1)N1Cc2cc(Oc3ccccc3)ccc2N=C1N [Compound 486] = <30%

Short answer for CC(=O)Nc1ccc(C(=O)NCCN2Cc3cc(-c4cccc(C(F)(F)F)c4)ccc3N=C2N)cc1 [Compound 594] : % Inhibition (FS) 1 μM was <30%

Short answer for NC1=Nc2ccc(Oc3ccccc3)cc2CN1C(CNC(=O)C1CCCC1)C1CCCCC1 (centres unmarked) [Compound 295] : % Inhibition (FS) 1 μM was 106%

Short answer for CS(=O)(=O)Nc1ccccc1-c1ccc2c(c1)CN(CCNC(=O)C1CCCCC1)C(N)=N2 [Compound 539] : % Inhibition (FS) 1 μM was <30%

Short answer for Cc1ccccc1-c1ccc2c(c1)CN(CCNC(=O)C13CC4CC(CC(C4)C1)C3)C(N)=N2 [Compound 658] : % Inhibition (FS) 1 μM was 62%

---

target.under.test: β-secretase(BACE) (Homo sapiens, UniProt P56817)
Construct: purchased Panvera
Sequence (P56817 46-501): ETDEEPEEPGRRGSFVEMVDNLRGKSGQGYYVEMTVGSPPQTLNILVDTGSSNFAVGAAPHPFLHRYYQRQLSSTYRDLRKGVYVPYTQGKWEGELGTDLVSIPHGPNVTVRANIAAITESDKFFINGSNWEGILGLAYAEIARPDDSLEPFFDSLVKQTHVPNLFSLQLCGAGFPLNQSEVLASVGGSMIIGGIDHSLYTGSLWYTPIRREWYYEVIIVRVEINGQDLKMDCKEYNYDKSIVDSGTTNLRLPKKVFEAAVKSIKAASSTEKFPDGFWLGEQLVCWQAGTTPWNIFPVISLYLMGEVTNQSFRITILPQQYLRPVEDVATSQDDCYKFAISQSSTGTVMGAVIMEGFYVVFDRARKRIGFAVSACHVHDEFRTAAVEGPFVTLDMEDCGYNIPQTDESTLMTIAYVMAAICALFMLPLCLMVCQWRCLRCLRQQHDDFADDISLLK
protocol.summary: BACE % Inhibition Assay ((Aedens)-[…]-(Dabcyl K-amide) substrate)
Format: biochemical
protocol.conditions: 10 μM test compound; % error ±10%; read-out: % Inhibition
quantity.name: inhibition at 10 µM (%)

CN(C(=O)CCN1Cc2cc(Oc3ccccc3)ccc2N=C1N)C1CCCCC1 = 83
CN(CCCN1Cc2cc(C(=O)c3ccccc3)ccc2N=C1N)C1CCCCC1 = 69
CN(C(=O)CCCCN1Cc2cc(C(=O)c3ccccc3)ccc2N=C1N)C1CCCCC1 = 81
NC1=Nc2ccc(Oc3ccccc3)cc2CN1CCCCC(=O)N(C1CCCCC1)C1CCCCC1 = 92

---

target.under.test: β-secretase(BACE) (Homo sapiens, UniProt P56817)
Construct: purchased Panvera
protocol.summary: BACE FS1% Inhibition Assay
Format: biochemical
protocol.conditions: 3 μM test compound; FS1 substrate
quantity.name: % Inhibition (FS) 3 μM (%)

Before answering, review these 9 worked examples.
CC(C)(C)OC(=O)NCC(c1ccccc1)N1Cc2cc(Oc3ccccc3)ccc2N=C1N (stereo not shown) = 72
Cc1cccc(Sc2ccc3c(c2)CN(Cc2cccc(C(=O)N(C)C4CCCCC4)c2)C(N)=N3)c1 = 118
CN(C(=O)c1cccc(CN2Cc3cc(-c4ccccc4OCc4ccccc4)ccc3N=C2N)c1)C1CCCCC1 = 48
NC1=Nc2ccc(Oc3ccccc3)cc2CN1Cc1cccc(C(=O)N2CCCCC2)c1 = 67
CSc1ccc(Nc2ccc3c(c2)CN(Cc2cccc(C(=O)N(C)C4CCCCC4)c2)C(N)=N3)cc1 = 101
C=CCc1cccc(C)c1Oc1ccc2c(c1)CN(Cc1cccc(C(=O)N(C)C3CCCCC3)c1)C(N)=N2 = 38
CCCCCC1CCC(C(=O)NCCN2Cc3cc(Oc4ccccc4)ccc3N=C2N)CC1 (stereo not shown) = 38
CCCC(CCCC(=O)N(C)C1CCN(C)CC1)N1Cc2cc(Oc3ccccc3)ccc2N=C1N (stereo not shown) = 103
CN(C(=O)CCC(c1ccc(-c2ccccc2)cc1)N1Cc2cc(Oc3ccccc3)ccc2N=C1N)C1CCCCC1 (stereo not shown) = 53

A: CN(C(=O)c1cccc(CN2Cc3cc(Oc4ccccc4-c4ccccc4)ccc3N=C2N)c1)C1CCCCC1
B: CN(C(=O)CC(C1CCCCC1)N1Cc2cc(Oc3ccccc3)ccc2N=C1N)C1CCCCC1 (stereo not shown)
For A and B , which recorded % Inhibition (FS) 3 μM is lower? Response format: the label of the selected entry. A

---

target.under.test: β-secretase(BACE) (Homo sapiens)
Construct: purchased Panvera
protocol.summary: BACE FS1% Inhibition Assay
Type: biochemical
protocol.conditions: 0.3 μM test compound; FS1 substrate; 0.3 µM
quantity.name: % Inhibition (FS) 0.3 μM (%)

Before answering, review these 3 worked examples.
CCCC(CNC(=O)C12CC3CC(CC(C3)C1)C2)N1Cc2cc(Oc3ccccc3)ccc2N=C1N (centres unmarked) [Compound 602] = 78
NC1=Nc2ccc(Oc3ccccc3)cc2CN1CCC(=O)NC1C2CC3CC(C2)CC1C3 (centres unmarked) = 110
COc1ccccc1-c1ccc2c(c1)CN(Cc1cccc(C(=O)N(C)C3CCCCC3)c1)C(N)=N2 = 91

A: CCCC(CNC(=O)C1CCCCC1)N1Cc2cc(Oc3ccccc3)ccc2N=C1N (centres unmarked) [Compound 601]
B: NC1=Nc2ccc(-c3ccccc3)cc2CN1CCNC(=O)CC1CCCC1
From the recorded data, which exceeds the other in % Inhibition (FS) 0.3 μM: A or B ? Response format: the label of the selected entry. A

---

target.under.test: β-secretase(BACE) (Homo sapiens)
Construct: purchased Panvera
protocol.summary: BACE FS1% Inhibition Assay
Format: biochemical
protocol.conditions: 1 μM test compound; FS1 substrate; 1 µM
quantity.name: % Inhibition (FS) 1 μM (%)

A: NC1=Nc2ccc(-c3ccc(F)cc3)cc2CN1CCNC(=O)C1CCCCC1 [Compound 624]
B: CCCC(CNC(=O)C1CCCCC1)N1Cc2cc(Oc3ccccc3)ccc2N=C1N (stereo not drawn) [Compound 601]
For A and B , which recorded % Inhibition (FS) 1 μM is lower? Response format: the label of the selected entry. A
(A: 38%, B: 115%)

a: COc1ccccc1-c1ccc2c(c1)CN(CCNC(=O)C1CCCCC1)C(N)=N2
b: CCCC(CNC(=O)C12CC3CC(CC(C3)C1)C2)N1Cc2cc(Oc3ccccc3)ccc2N=C1N (stereo not drawn) [Compound 602]
For a and b , which recorded % Inhibition (FS) 1 μM is lower? Response format: the label of the selected entry. a

---

target.under.test: β-secretase(BACE) (Homo sapiens, UniProt P56817)
Construct: purchased Panvera
protocol.summary: BACE FS1% Inhibition Assay
Type: biochemical
protocol.conditions: 3 μM test compound; FS1 substrate; read-out: % Inhibition (FS) 3 μM
Protocol: BACE FS1% Inhibition Assay The following reagents were used in this assay: sodium acetate, PEG8000 (Sigma), DMSO, HEPES, FS1 substrate [[…]] […] The FS1-substrate stock solution was prepared in DMSO as a 10 mg/mL solution. The FS1-substrate working solution was prepared by diluting the 10 mg/mL stock solution with substrate assay buffer to a final concentration of 300 μg/mL. […] For test compounds, % inhibition was determined at each concentration as follows: [formula]
quantity.name: inhibition at 3 µM (%)

Before answering, review these 6 worked examples.
CC(C)N(C(=O)c1cccc(CN2Cc3cc(Oc4ccccc4)ccc3N=C2N)c1)C1CCCCC1 = 110
CN(C(=O)CCC(C1CCC(O)CC1)N1Cc2cc(Oc3ccccc3)ccc2N=C1N)C1CCCCC1 (stereo not shown) = 117
CN(C(=O)CC[C@@H](C(=O)N(C)C1CCCCC1)N1Cc2cc(Oc3ccccc3)ccc2N=C1N)C1CCCCC1 = 114
CCCCS(=O)(=O)NCCN1Cc2cc(Oc3ccccc3)ccc2N=C1N = 89
NC1=Nc2ccc(Oc3ccccc3)cc2CN1C[C@H](NC(=O)C1CCCCC1)C1CCCCC1 = 30
COc1ccc(C(CCC(=O)N(C)C2CCCCC2)N2Cc3cc(Oc4ccccc4)ccc3N=C2N)cc1 (stereo not shown) = 110

I: CN(C(=O)c1cccc(CN2Cc3cc(Oc4cccc(NS(=O)(=O)c5ccccc5)c4)ccc3N=C2N)c1)C1CCCCC1
II: CC(C)[C@H](CNC(=O)C1CCCCC1)N1Cc2cc(Oc3ccccc3)ccc2N=C1N
For I and II , which recorded inhibition at 3 µM is lower? Response format: the label of the selected entry. I
(I: 84%, II: 125%)
